# Tested on: SK-OV-3 ovarian
# Assay info: NCI-60 one-dose screen, 48 h (100 = growth as untreated, 0 = no growth, -100 = all killed)
# Test conditions: 10 µM unless noted
This is part of a sample that, as a whole, favours compounds with a hit. Of some 83,000 tested, about 20% had one in any assay.
Everything with growth lower than 80% is not fulfilled; everything else, including exactly 80%, is fulfilled.

>  <Molecule>
CN1CCN(c2c(F)cc(NC3=C(Cl)C(=O)c4ncccc4C3=O)cc2F)CC1

>  <Class assignment>
fulfilled

$$$$
>  <Molecule>
COc1ccc(C(=O)c2cc(C)c(OC)c(C)c2)c(OC)c1O

>  <Class assignment>
not fulfilled

$$$$
>  <Molecule>
O=C(NNc1nc(Cl)nc(N2CCN(C(c3ccccc3)c3ccccc3)CC2)n1)c1ccccc1

>  <Class assignment>
fulfilled

$$$$
>  <Molecule>
O=C(/C=C\c1ccc(OCCCCCC[P+](c2ccccc2)(c2ccccc2)c2ccccc2)cc1)c1ccc2c(c1)OCCO2

>  <Class assignment>
not fulfilled

$$$$
>  <Molecule>
CCCCCCCCCCCCC1CCC/C=C\CCC(=O)O1 (stereo not drawn)

>  <Class assignment>
fulfilled

$$$$
>  <Molecule>
COc1cccc(NC(=O)c2cccc(-c3cc(=O)c4c(OC)c(OC)c(OC)cc4o3)c2)c1

>  <Class assignment>
fulfilled

$$$$
>  <Molecule>
Cc1ccc(C2CC(c3cccc(Nc4ccncc4)c3)=NN2c2cc(Cl)cc(Cl)c2)cc1 (stereo not drawn)

>  <Class assignment>
fulfilled

$$$$

Taken from PubChem BioAssay (NCI).
